# test-system: D-1 receptor (Rattus norvegicus, UniProt P18901)
# Construct: Stdatal tissue is excised, pooled, and homogenized; from tissue; host or cells: striatum of male Sprague-Dawley rats (washed homogenate pellet)
# Sequence (P18901 whole entry): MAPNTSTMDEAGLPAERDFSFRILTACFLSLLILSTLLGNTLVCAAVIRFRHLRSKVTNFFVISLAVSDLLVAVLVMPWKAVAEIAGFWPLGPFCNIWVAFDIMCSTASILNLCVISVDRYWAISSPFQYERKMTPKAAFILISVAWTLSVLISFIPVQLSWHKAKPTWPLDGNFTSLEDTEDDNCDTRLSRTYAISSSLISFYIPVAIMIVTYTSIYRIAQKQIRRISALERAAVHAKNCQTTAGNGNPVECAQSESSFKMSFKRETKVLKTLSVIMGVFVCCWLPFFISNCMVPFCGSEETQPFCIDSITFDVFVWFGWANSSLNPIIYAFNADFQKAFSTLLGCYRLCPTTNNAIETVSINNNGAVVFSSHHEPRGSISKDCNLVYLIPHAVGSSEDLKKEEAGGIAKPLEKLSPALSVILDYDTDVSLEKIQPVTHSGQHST
# experiment-description: Competitive inhibition assay: displacement of tritiated Compound B* (D-1) from rat striatal tissue
# Type: binding, rat (male Sprague-Dawley)
# measurement-context: tritiated compound B 0.3 nM, rat striatal tissue, pH 7.4, 37° C., 15 min
pKi: −log10 of the molar value.
Items are presented alongside their recorded pKi.

| molecule | pKi |
| --- | --- |
| CN1CCc2cc(Cl)c(O)c3c2C(CCC3O)C1 (stereo not shown) | 6.96 |
| CN1CCc2ccc(O)c3c2C(CCC3)C1 (stereo not shown) | 6.46 |
| CN1CCc2cc(Cl)c(O)c3c2C(CCC3c2ccccc2)C1 (stereo not shown) | 5.68 |
| CN1CCc2cc(Cl)c(O)c3c2C(CCC3(C)C)C1 (stereo not shown) | 6.59 |

====

# test-system: D-1 receptor (Rattus norvegicus, UniProt P18901)
# Construct: Stdatal tissue is excised, pooled, and homogenized; from tissue; host or cells: striatum of male Sprague-Dawley rats (washed homogenate pellet)
# experiment-description: Competitive inhibition assay: displacement of tritiated Compound B* (D-1) from rat striatal tissue
# Assay type: binding, rat (male Sprague-Dawley)
pKi: −log10 of the molar value. Where a name gives a salt, the structure may show the parent alone.
readout-name: pKi

| compound | number |
| --- | --- |
| CN1CCc2c(Cl)c(Cl)c(O)c3c2C(CCC3)C1 (centres unmarked) | 8.96 |
| CC(C)c1ccc(NC(=O)Oc2c(Cl)cc3c4c2CCCC4CN(C)CC3)cc1 (centres unmarked) [Cl H 1 4-i-PrPhNHCO H H H H, hydrochloride] | 7.29 |
| CN1CCc2cc(Cl)c(O)c3c2C(C1)CC3(C)C (centres unmarked) | 7.19 |
| CN1CCc2cc(Cl)c(O)c3c2C(CCC3)C1 (centres unmarked) | 8.21 |
| CC1CCC2CN(C)CCc3cc(Cl)c(O)c1c32 (centres unmarked) [Cl H 1 H CH3 H H H] | 7.38 |

====

# test-system: D-2 receptor (Rattus norvegicus, UniProt P61169)
# Construct: Stdatal tissue is excised, pooled, and homogenized; from tissue; host or cells: striatum of male Sprague-Dawley rats (washed homogenate pellet)
# Sequence (P61169 whole entry): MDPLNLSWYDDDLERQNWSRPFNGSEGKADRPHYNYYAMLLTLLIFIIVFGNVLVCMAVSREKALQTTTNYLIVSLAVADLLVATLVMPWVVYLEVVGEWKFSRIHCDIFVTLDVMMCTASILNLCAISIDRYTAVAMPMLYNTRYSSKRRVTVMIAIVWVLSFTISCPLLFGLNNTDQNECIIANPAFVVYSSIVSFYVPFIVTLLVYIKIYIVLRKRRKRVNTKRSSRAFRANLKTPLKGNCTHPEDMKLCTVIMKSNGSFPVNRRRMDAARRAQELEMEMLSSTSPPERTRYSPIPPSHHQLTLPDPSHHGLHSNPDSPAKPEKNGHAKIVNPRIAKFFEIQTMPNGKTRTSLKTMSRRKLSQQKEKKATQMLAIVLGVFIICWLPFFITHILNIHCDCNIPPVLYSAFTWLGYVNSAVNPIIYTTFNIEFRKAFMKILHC
# experiment-description: Competitive inhibition assay: displacement of 3H-spiperone (D-2) from rat striatal tissue
# Assay type: binding, rat (male Sprague-Dawley)
pKi: −log10 of the molar value. Counter-ions that a name gives are not always drawn.

| compound | pKi |
| --- | --- |
| COc1cc(NC(=O)Oc2c(Cl)cc3c4c2CCCC4CN(C)CC3)cc(OC)c1 (centres unmarked) | 6.39 |
| COc1cc(NC(=O)Oc2ccc3c4c2C(C)CCC4CN(C)CC3)cc(OC)c1 (centres unmarked) | 6.47 |
| CC(C)c1ccc(NC(=O)Oc2c(Cl)cc3c4c2CCCC4CN(C)CC3)cc1 (centres unmarked) [Cl H 1 4-i-PrPhNHCO H H H H, hydrochloride] | 6.17 |
| CN1CCc2cc(Cl)c(OC(=O)N(C)C)c3c2C(CCC3)C1 (centres unmarked) | 5.10 |
| CC(C)c1ccc(NC(=O)Oc2ccc3c4c2C(C)CCC4CN(C)CC3)cc1 (centres unmarked) | 6.38 |

====

# test-system: D-2 receptor (Rattus norvegicus)
# Construct: Stdatal tissue is excised, pooled, and homogenized; from tissue; host or cells: striatum of male Sprague-Dawley rats (washed homogenate pellet)
# experiment-description: Competitive inhibition assay: displacement of 3H-spiperone (D-2) from rat striatal tissue
# Type: binding, rat (male Sprague-Dawley)
# measurement-context: 3H-spiperone 0.2 nM, rat striatal tissue, pH 7.4, 37° C., 15 min
Items are presented alongside their recorded Ki.

| molecule | readout-unit | Ki |
| --- | --- | --- |
| CN1CCc2cc(Cl)c(O)c3c2C(CCC3(C)C)C1 (stereo not shown) [Cl H 1 H CH3 CH3 H H] | µM | 0.218 |
| CC1CCC2CN(C)CCc3cc(Cl)c(O)c1c32 (stereo not shown) [Cl H 1 H H CH3 H H] | µM | 0.389 |
| CC1CCC2CN(C)CCc3cc(Cl)c(O)c1c32 (stereo not shown) [Cl H 1 H CH3 H H H] | µM | 0.248 |
| CN1CCc2ccc(O)c3c2C(CCC3)C1 (stereo not shown) [CH H 1 H H H H H] | µM | 3.35 |
| CN1CCc2cc(Cl)c(O)c3c2C(CCC3O)C1 (stereo not shown) [Cl H 1 H HO H H H] | µM | 6.59 |
| CC1Cc2c(O)c(Cl)cc3c2C(C1)CN(C)CC3 (stereo not shown) [Cl H 1 H H H CH3 H] | µM | 0.25 |
| CC1=Cc2c(O)c(Cl)cc3c2C(C1)CN(C)CC3 (stereo not shown) [Cl H 1 H H -- CH3 --] | µM | 0.264 |

====

Items are presented alongside their recorded pKi.
# test-system: D-1 receptor (Rattus norvegicus, UniProt P18901)
# Construct: Stdatal tissue is excised, pooled, and homogenized; from tissue; host or cells: striatum of male Sprague-Dawley rats (washed homogenate pellet)
# experiment-description: Competitive inhibition assay: displacement of tritiated Compound B* (D-1) from rat striatal tissue
# Assay type: binding, rat (male Sprague-Dawley)
pKi: −log10 of the molar value. Structures can show the parent of a compound that is named as a salt.

| compound | pKi |
| --- | --- |
| COc1cc(NC(=O)Oc2c(Cl)cc3c4c2CCCC4CN(C)CC3)cc(OC)c1 (centres unmarked) [Cl H 1 3,5-(MeO)2PhNHCO H H H H] | 8.18 |
| Cc1cc2c3c(c1O)CCCC3CN(C)CC2 (centres unmarked) [CH3 H 1 H H H H H, hydrochloride] | 7.43 |
| CN1CCc2cc(Cl)c(OC(=O)N(C)C)c3c2C(CCC3)C1 (centres unmarked) [Cl H 1 Me2NCO H H H H] | 6.00 |
| CC(C)c1ccc(NC(=O)Oc2ccc3c4c2C(C)CCC4CN(C)CC3)cc1 (centres unmarked) [H H 1 4-iPrPhNHCO CH3 H H H] | 6.87 |
| CC1=Cc2c(O)c(Cl)cc3c2C(C1)CN(C)CC3 (centres unmarked) [Cl H 1 H H -- CH3 --] | 7.49 |
| COc1cc(NC(=O)Oc2ccc3c4c2C(C)CCC4CN(C)CC3)cc(OC)c1 (centres unmarked) [H H 1 3,5-(MeO)2PhNHCO CH3 H H H] | 7.46 |
| CC1Cc2c(O)c(Cl)cc3c2C(C1)CN(C)CC3 (centres unmarked) [Cl H 1 H H H CH3 H] | 8.35 |
| CC1CCC2CN(C)CCc3cc(Cl)c(O)c1c32 (centres unmarked) [Cl H 1 H H CH3 H H] | 7.29 |

====

# test-system: D-2 receptor (Rattus norvegicus, UniProt P61169)
# Construct: Stdatal tissue is excised, pooled, and homogenized; from tissue; host or cells: striatum of male Sprague-Dawley rats (washed homogenate pellet)
# experiment-description: Competitive inhibition assay: displacement of 3H-spiperone (D-2) from rat striatal tissue
# Type: binding, rat (male Sprague-Dawley)
# measurement-context: 3H-spiperone 0.2 nM, rat striatal tissue, pH 7.4, 37° C., 15 min
Structures can show the parent of a compound that is named as a salt.
Items are presented alongside their recorded Ki.
readout-name: Ki (nM)

| compound | test-system | readout-name | number |
| --- | --- | --- | --- |
| CN1CCc2cc(Cl)c(O)c3c2C(C1)CC3(C)C (centres unmarked) [Cl H 0 H CH3 CH3 H H] | D-2 receptor (Rattus norvegicus, UniProt P61169) | Ki | 147 |
| CN1CCc2c(Cl)c(Cl)c(O)c3c2C(CCC3)C1 (centres unmarked) [Cl Cl 1 H H H H H] | D-2 receptor (Rattus norvegicus, UniProt P61169) | Ki | 230 |
| Cc1cc2c3c(c1O)CCCC3CN(C)CC2 (centres unmarked) [CH3 H 1 H H H H H, hydrochloride] | D-2 receptor (Rattus norvegicus, UniProt P61169) | Ki | 1300 |
| CN1CCc2cc(Cl)c(O)c3c2C(CCC3c2ccccc2)C1 (centres unmarked) [Cl H 1 H C6H5 H H H] | D-2 receptor (Rattus norvegicus, UniProt P61169) | Ki | 42800 |
| CN1CCc2cc(Cl)c(O)c3c2C(CCC3)C1 (centres unmarked) [Cl H 1 H H H H H] | D-2 receptor (Rattus norvegicus, UniProt P61169) | Ki | 500 |

Source of measurements: patent US5374722A
